test: Inhibition of NS5A in HuH7 cell infected HCV genotype 1b Con1 assessed as decrease in viral replication after 3 days in presence of 40% human plasma by luciferase reporter gene assay
pEC50: −log10 of the molar value.
Measured metric: pEC50

COC(=O)N[C@H](C(=O)N1CCC[C@H]1c1nc2cc([C@H]3CC[C@H](c4ccc5[nH]c([C@@H]6CCCN6C(=O)[C@@H](NC(=O)OC)C(C)C)nc5c4)N3c3cc(F)c(N4CCCCC4)c(F)c3)ccc2[nH]1)C(C)C : 9.62
COC(=O)N[C@H](C(=O)N1CCC[C@H]1c1nc2cc(F)c([C@H]3CC[C@H](c4cc5[nH]c([C@@H]6CCCN6C(=O)[C@@H](NC(=O)OC)C6CCOCC6)nc5cc4F)N3c3cc(F)c(N4CCC(c5ccc(F)cc5)CC4)c(F)c3)cc2[nH]1)C1CCOCC1 : 9.28
COC(=O)N[C@H](C(=O)N1CCC[C@H]1c1nc2cc(F)c([C@H]3CC[C@H](c4cc5[nH]c([C@@H]6CCCN6C(=O)[C@@H](NC(=O)OC)C(C)C)nc5cc4F)N3c3cc(F)c(N4CCC(c5ccccc5)CC4)c(F)c3)cc2[nH]1)C(C)C : 9.87
COC(=O)N[C@H](C(=O)N1CCC[C@H]1c1nc2cc(F)c([C@H]3CC[C@H](c4cc5[nH]c([C@@H]6CCCN6C(=O)[C@@H](NC(=O)OC)C6CCOCC6)nc5cc4F)N3c3cc(F)c(N4CCC(c5ccccc5)CC4)c(F)c3)cc2[nH]1)C1CCOCC1 : 9.47

* * *

experiment: Inhibition of HCV genotype 1b Con1 NS5A expressed in HuH7 cell infected HCV genotype 2a assessed as decrease in viral replication after 3 days by luciferase reporter gene assay
pEC50: −log10 of the molar value.
Measured metric: pEC50

COC(=O)N[C@H](C(=O)N1CCC[C@H]1c1nc2ccc([C@H]3CC[C@H](c4ccc5nc([C@@H]6CCCN6C(=O)[C@@H](NC(=O)OC)C(C)C)[nH]c5c4)N3c3ccc(C(C)(C)C)cc3)cc2[nH]1)C(C)C : 9.82
COC(=O)N[C@H](C(=O)N1CCC[C@H]1c1nc2ccc([C@H]3CC[C@H](c4ccc5nc([C@@H]6CCCN6C(=O)[C@@H](NC(=O)OC)C(C)C)[nH]c5c4)N3c3ccc(OC(F)(F)F)cc3)cc2[nH]1)C(C)C : 10.37
COC(=O)N[C@H](C(=O)N1CCC[C@H]1c1nc2ccc([C@H]3CC[C@H](c4ccc5nc([C@@H]6CCCN6C(=O)[C@@H](NC(=O)OC)C(C)C)[nH]c5c4)N3c3ccc(Cl)cc3)cc2[nH]1)C(C)C : 10.92
COC(=O)N[C@H](C(=O)N1CCC[C@H]1c1nc2ccc([C@H]3CC[C@H](c4ccc5nc([C@@H]6CCCN6C(=O)[C@@H](NC(=O)OC)C(C)C)[nH]c5c4)N3c3ccc(N4CCCCC4)c(F)c3)cc2[nH]1)C(C)C : 10.32
COC(=O)N[C@H](C(=O)N1CCC[C@H]1c1nc2ccc([C@H]3CC[C@H](c4ccc5nc([C@@H]6CCCN6C(=O)[C@@H](NC(=O)OC)C(C)C)[nH]c5c4)N3c3ccc(C4CCCCC4)cc3)cc2[nH]1)C(C)C : 11.00
